Entry source: patent US20170355757A1

The entries below are paired with their reported Human AP IC50, hemolysis assay, NHS.
Molecular target: human C5 (human, UniProt P01031 19-1676)
Experiment: cell-based or functional assay

{"binder": "H4H11683N (antibody, human IgG4, V domains shown, tested with H4H prefix (human IgG4 Fc with S108P hinge mutation); variable regions follow the numerical identifier; also called H2M11683N) VH: QVQLVESGGGVVQPGRSLRLSCVASGFTFSSYGIHWVRQAPGKGLEWVAVIWDDGNNINYSDSVKGRFIISRDNSRKTVYLQMNSLRGEDTAVYYCARDAPIAPVPDYWGQGTLVTVSS VL: DIQMTQSPSTLSASVGDRVTITCRASQSISSWLAWYQQKPGKAPKLLIYKASSLDTGVPSRFSGSGSGTEFTLTISSLQPDDFATYYCQQYNTYSYTFGLGTKLEIK", "readout units": "nM", "Human AP IC50, hemolysis assay, NHS": 34}
{"binder": "H4H12163P (antibody, human IgG4, V domains shown, H4H: human IgG4 Fc with S108P hinge mutation) VH: EVQLVESGGDLVQPGGSLRLSCAASGFTFSSYAMNWVRQGPGKGLEWVSAISGRGDSTYYADSVKGRLTISRDNSKNTLYLQMNSLRAEDTAVYYCVKEGEQLVYWYFDLWGRGTLVTVSS VL: DIQMTQSPSSLSASVGDRVTITCRASQTISNFLHWYQQKPGKAPKLLIYAASSLQSGVPSRFSGSGSGTDFTLTISSLQPEDFSTYFCQQSYTTPLTFGGGTKVEIK", "readout units": "nM", "Human AP IC50, hemolysis assay, NHS": 20.5}
{"binder": "H4H12159P (antibody, human IgG4, V domains shown, H4H: human IgG4 Fc with S108P hinge mutation) VH: QVQLVESGGGVVQPGRSLRLSCGASGFTFSTYGMHWVRQAPGKGLEWVAVIWDDGNNKYYADSVKGRFTISRDNSKNTLYLQMNSLRAEDTAVYYCARDSEVAPVGDYWGQGTLVTVSS VL: DIQMTQSPSTLSASVGDRVTIICRASQSINRWLAWYQQKPGKAPKLLIYKASSLESGVPSRFSGSGSGTEFTLTISSLQPDDFAAYYCQQYNDYSYTFGQGTKLEIK", "readout units": "nM", "Human AP IC50, hemolysis assay, NHS": 17.5}
{"binder": "H4H12170P (antibody, human IgG4, V domains shown, H4H: human IgG4 Fc with S108P hinge mutation) VH: QVQLVESGGGVVQPGRSLRLSCAASGFTFSGYGMHWVRQAPGKGLEWVALIWLDGSNDYYADSVKGRFTISRDNSKNTLYLQMNRLRAEDTAVYYCARDGPVAAIPDYWGQGTLVTVSS VL: DIQMTQSPSTLSASVGDRVTITCRASQSISRWLAWYQLKPGKAPKLLIYKASSLESGVPSRFSGSGSGTDFTLTISSLQPDDFATYYCQQYNTYSYTFGQGTKLEIK", "readout units": "nM", "Human AP IC50, hemolysis assay, NHS": 18}
{"binder": "H4H12161P (antibody, human IgG4, V domains shown, H4H: human IgG4 Fc with S108P hinge mutation) VH: EVQLVESGGDLVQPGGSLRLSCAASGFTFSDHYMDWVRQAPGKGLDWIGRIRNKANAYNTEYAASVRGRFTISRDDSQNLLYLQMNSLKTDDTAVYYCVRVWNYAYFAMDVWGQGTTVTVSS VL: DIQMTQSPSSLSASVGDRVTITCRSSQNIGIFLNWYQQKPGEAPNLLISAASSLHSGVPSRFSGSGSGTDFTLTIGSLQPEDFATYYCQQTYNTIFTFGPGTKVDIK", "readout units": "nM", "Human AP IC50, hemolysis assay, NHS": 25.5}
